- Tested target: NLRP3 inflammasome (Homo sapiens (Human))
- Assay explanation: Evaluation of NLRP3 inflammasome inhibitory activity (inhibition of IL-1β production in LPS/Nigericin-stimulated THP1-Null cells)
- Condition parameters: IL-1β production in THP1-Null cells, PMA, LPS 1 μg/mL, Nigericin 7.5 μmol/L, AlphaLISA
Measurement type: IC50

Cc1cc(C)c(-n2cc3c(=O)[nH]c(N4CCC(CO)CC4)nc3n2)c(C)c1 ... 35 nM

Kindly give each listed record's IC50.
1. Cc1cc(Br)cc(C)c1-n1cc2c(=O)[nH]c(NCC(F)(F)F)nc2n1
2. Cc1cc(C)c(-n2cc3c(=O)[nH]c(N4CCN(C(=O)OC(C)(C)C)CC4)nc3n2)c(C)c1
3. O=c1[nH]c(N2CCOCC2)nc2nn(-c3ccc(Br)cc3OC3CCC3)cc12

# output
1. 14 nM
2. 5.6 nM
3. 48 nM

###

- Tested target: NLRP3 inflammasome (Homo sapiens (Human), UniProt Q96P20)
- Sequence (Q96P20 whole entry): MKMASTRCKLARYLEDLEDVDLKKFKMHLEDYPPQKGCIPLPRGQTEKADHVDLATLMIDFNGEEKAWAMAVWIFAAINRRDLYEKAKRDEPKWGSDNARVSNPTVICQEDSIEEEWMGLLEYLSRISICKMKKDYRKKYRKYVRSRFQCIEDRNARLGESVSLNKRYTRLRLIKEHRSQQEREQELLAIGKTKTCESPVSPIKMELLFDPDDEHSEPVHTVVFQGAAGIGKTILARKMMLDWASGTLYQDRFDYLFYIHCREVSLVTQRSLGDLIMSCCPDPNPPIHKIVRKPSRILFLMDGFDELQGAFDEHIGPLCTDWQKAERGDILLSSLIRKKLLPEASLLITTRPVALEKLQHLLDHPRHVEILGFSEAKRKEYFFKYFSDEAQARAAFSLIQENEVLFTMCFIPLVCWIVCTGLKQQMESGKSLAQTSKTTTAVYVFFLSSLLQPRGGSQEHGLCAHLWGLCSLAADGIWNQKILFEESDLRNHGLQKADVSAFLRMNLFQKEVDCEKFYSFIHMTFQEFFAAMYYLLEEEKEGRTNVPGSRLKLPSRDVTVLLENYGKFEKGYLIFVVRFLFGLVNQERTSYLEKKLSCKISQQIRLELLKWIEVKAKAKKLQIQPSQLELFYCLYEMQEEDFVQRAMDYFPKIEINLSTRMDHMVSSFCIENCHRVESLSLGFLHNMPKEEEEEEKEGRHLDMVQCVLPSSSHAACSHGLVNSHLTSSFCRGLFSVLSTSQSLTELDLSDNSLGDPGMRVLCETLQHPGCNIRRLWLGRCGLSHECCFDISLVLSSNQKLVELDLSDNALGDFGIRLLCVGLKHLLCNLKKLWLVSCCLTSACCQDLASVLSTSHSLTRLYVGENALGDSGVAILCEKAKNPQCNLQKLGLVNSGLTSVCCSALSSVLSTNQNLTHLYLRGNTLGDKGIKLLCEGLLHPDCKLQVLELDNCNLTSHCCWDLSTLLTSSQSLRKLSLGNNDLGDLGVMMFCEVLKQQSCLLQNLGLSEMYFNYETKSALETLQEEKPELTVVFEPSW
- Assay explanation: Evaluation of NLRP3 inflammasome inhibitory activity (inhibition of IL-1β production in LPS/Nigericin-stimulated THP1-Null cells)
- Condition parameters: IL-1β production in THP1-Null cells, PMA, LPS 1 μg/mL, Nigericin 7.5 μmol/L, AlphaLISA
Measurement type: pIC50
One number for each entry, as −log10 of the molar value.

// solved cases for pIC50 follow
Cc1c2c(=O)[nH]c(N3CCCC3)nc2nn1-c1ccc(C(F)(F)F)cc1 ... 7.30
CC(C)Cc1ccccc1-n1cc2c(=O)[nH]c(N3CCOCC3)nc2n1 ... 6.29
CC(O)c1cc(Br)ccc1-n1cc2c(=O)[nH]c(N3CCOCC3)nc2n1 (racemic) ... 7.20

Record pIC50 for all entries; do not skip any.
1. Cc1cc(C(F)(F)F)cc(C)c1-n1cc2c(=O)[nH]c(N3CCCC3)nc2n1
2. Cc1cc(Br)cc(C)c1-n1cc2c(=O)[nH]c(N3CCCO3)nc2n1
3. Cc1cc(Br)cc(C)c1-n1cc2c(=O)[nH]c(N(C)C(C)C)nc2n1
4. COCCN(C)c1nc2nn(-c3c(C)cc(Br)cc3C)cc2c(=O)[nH]1
5. Cc1cc(Cl)cc(C(=O)C2CC2)c1-n1cc2c(=O)[nH]c(N3CCOCC3)nc2n1

# output
[7.89, 6.77, 7.80, 7.33, 6.37]

###

- Tested target: NLRP3 inflammasome (Homo sapiens (Human), UniProt Q96P20)
- Assay explanation: Evaluation of NLRP3 inflammasome inhibitory activity (inhibition of IL-1β production in LPS/Nigericin-stimulated THP1-Null cells)
- Condition parameters: IL-1β production in THP1-Null cells, PMA, LPS 1 μg/mL, Nigericin 7.5 μmol/L, AlphaLISA
pIC50: −log10 of the molar value.
Hi, to clarify the labels: Criterion met covers pIC50 from 7 upward, Criterion not met covers anything below 7.

Examples from the recorded data:
O=c1[nH]c(N2CCCC2)nc2nn(-c3c(Cl)cccc3Cl)cc12 [Example 30] ... Criterion not met
Cc1cccc(-n2cc3c(=O)[nH]c(N4CCCC4)nc3n2)c1 [Example 43] ... Criterion not met
O=c1[nH]c(N2CCOCC2)nc2nn(-c3ccc(C4CC4)cc3C(F)(F)F)cc12 [Example 177] ... Criterion met
O=c1[nH]c(N2CCCC2)nc2nn(-c3cccc4ccccc34)cc12 [Example 68] ... Criterion not met
CNc1nc2nn(-c3ccc(C)cc3C)cc2c(=O)n1C [Example 80] ... Criterion not met
Cc1cc(Br)cc(Cl)c1-n1cc2c(=O)[nH]c(N3CCOCC3)nc2n1 [Example 146] ... Criterion met
Cc1cc(C(C)C(F)(F)F)cc(C)c1-n1cc2c(=O)[nH]c(N3CCOCC3)nc2n1 (racemic) [Example 294] ... Criterion not met
Cc1cc(Br)cc(C)c1-n1cc2c(=O)[nH]c(N3CCC(F)(F)C3)nc2n1 [Example 283] ... Criterion met

# input Does the reported pIC50 for Cc1cc(Br)cc(C)c1-n1cc2c(=O)[nH]c(N3CCC[C@H]3C)nc2n1 [Example 284] fall at or above the 7 mark?
# output Criterion met
